Test system: Giardia lamblia trophozoites, WB strain (ATCC #30957)
Assay: 3H-thymidine incorporation drug sensitivity assay, Giardia lamblia WB strain (ATCC 30957)
Format: cell-based
Conditions: Giardia duodenalis, ATCC30957; Table IV; Stock WB (ATCC 30957); read-out: IC50 determined by 3H-thymidine incorporation
Where a name gives a salt, the structure may show the parent alone.
Observation Type: pIC50
pIC50 field: float, defined as -log10 of concentration (mol/L).

A selection of reference data follows.
CCN(CC)CCCC(C)Nc1c2ccc(Cl)cc2nc2ccc(OC)cc12 (stereo not drawn) [Quinacrine . HCl] | 5.85
O=C1OCCN1N=Cc1ccc([N+](=O)[O-])o1 | 5.72

Continue with the molecule presented below.
QUERY: // fetch pIC50 given entry Cc1ncc([N+](=O)[O-])n1CCO
RESULT: 5.44
